system: Mus musculus; assay: Toxicity in mouse assessed as death time at 0.1 mL/10 g, iv; format: organism-based; conditions: in vivo

| smilesEntry | Time |
| --- | --- |
| C[C@@H]1O[C@@H](O[C@H]2[C@H](O[C@H]3CC[C@@]4(C)[C@@H](CC[C@]5(C)[C@@H]4CC=C4[C@@H]6CC(C)(C)CC[C@]6(C(=O)[O-])CC[C@]45C)[C@]3(C)CO)OC[C@H](O)[C@@H]2O)[C@H](O)[C@H](O)[C@H]1O.[Na+] | < 60 min |
| C[C@@H]1O[C@@H](O[C@H]2[C@H](O[C@H]3CC[C@@]4(C)[C@@H](CC[C@]5(C)[C@@H]4CC=C4[C@@H]6CC(C)(C)CC[C@]6(C(=O)NCC(=O)[O-])CC[C@]45C)[C@]3(C)CO)OC[C@H](O)[C@@H]2O)[C@H](O)[C@H](O)[C@H]1O.[Na+] | > 20200 min |
| C[C@@H]1O[C@@H](O[C@H]2[C@H](O[C@H]3CC[C@@]4(C)[C@@H](CC[C@]5(C)[C@@H]4CC=C4[C@@H]6CC(C)(C)CC[C@]6(C(=O)[O-])CC[C@]45C)[C@]3(C)CO)OC[C@H](O[C@@H]3O[C@H](CO)[C@@H](O)[C@H](O)[C@H]3O)[C@@H]2O)[C@H](O)[C@H](O)[C@H]1O.[Na+] | < 60 min |
| C[C@@H]1O[C@@H](O[C@H]2[C@H](O[C@H]3CC[C@@]4(C)[C@@H](CC[C@]5(C)[C@@H]4CC=C4[C@@H]6CC(C)(C)CC[C@]6(C(=O)NCC(=O)[O-])CC[C@]45C)[C@]3(C)CO)OC[C@H](O[C@@H]3O[C@H](CO)[C@@H](O)[C@H](O)[C@H]3O)[C@@H]2O)[C@H](O)[C@H](O)[C@H]1O.[Na+] | > 20200 min |

###

test: Cytotoxicity against human HL7702 cells assessed as inhibition of cell growth after 24 hrs by MTT assay; type: cell-based; settings: L02, 24 h
pIC50: −log10 of the molar value.
The entries below come with measured pIC50 values attached.
reportedProperty: pIC50

| smilesEntry | comparisonOperator | observedValue |
| --- | --- | --- |
| C[C@@H]1O[C@@H](O[C@H]2[C@H](O[C@H]3CC[C@@]4(C)[C@@H](CC[C@]5(C)[C@@H]4CC=C4[C@@H]6CC(C)(C)CC[C@]6(C(=O)N[C@H](CO)C(=O)O)CC[C@]45C)[C@]3(C)CO)OC[C@H](O[C@@H]3O[C@H](CO)[C@@H](O)[C@H](O)[C@H]3O)[C@@H]2O)[C@H](O)[C@H](O)[C@H]1O | < | 4.00 |
| C[C@@H]1O[C@@H](O[C@H]2[C@H](O[C@H]3CC[C@@]4(C)[C@@H](CC[C@]5(C)[C@@H]4CC=C4[C@@H]6CC(C)(C)CC[C@]6(C(=O)N6CCC[C@@H]6C(=O)O)CC[C@]45C)[C@]3(C)CO)OC[C@H](O)[C@@H]2O)[C@H](O)[C@H](O)[C@H]1O | = | 4.27 |
| C[C@@H]1O[C@@H](O[C@H]2[C@H](O[C@H]3CC[C@@]4(C)[C@@H](CC[C@]5(C)[C@@H]4CC=C4[C@@H]6CC(C)(C)CC[C@]6(C(=O)N6CCN(CCC(=O)O)CC6)CC[C@]45C)[C@]3(C)CO)OC[C@H](O[C@@H]3O[C@H](CO)[C@@H](O)[C@H](O)[C@H]3O)[C@@H]2O)[C@H](O)[C@H](O)[C@H]1O | = | 5.89 |
| CC(=O)OCOC(=O)[C@]12CCC(C)(C)C[C@H]1C1=CC[C@@H]3[C@@]4(C)CC[C@H](O[C@@H]5OC[C@H](O)[C@H](O)[C@H]5O[C@@H]5O[C@@H](C)[C@H](O)[C@@H](O)[C@H]5O)[C@@](C)(CO)[C@@H]4CC[C@@]3(C)[C@]1(C)CC2 | = | 4.69 |
| COC(=O)[C@H]1CCCN1C(=O)[C@]12CCC(C)(C)C[C@H]1C1=CC[C@@H]3[C@@]4(C)CC[C@H](O[C@@H]5OC[C@H](O)[C@H](O)[C@H]5O[C@@H]5O[C@@H](C)[C@H](O)[C@@H](O)[C@H]5O)[C@@](C)(CO)[C@@H]4CC[C@@]3(C)[C@]1(C)CC2 | = | 4.44 |
| COC(=O)[C@@H](CO)NC(=O)[C@]12CCC(C)(C)C[C@H]1C1=CC[C@@H]3[C@@]4(C)CC[C@H](O[C@@H]5OC[C@H](O)[C@H](O)[C@H]5O[C@@H]5O[C@@H](C)[C@H](O)[C@@H](O)[C@H]5O)[C@@](C)(CO)[C@@H]4CC[C@@]3(C)[C@]1(C)CC2 | < | 4.00 |
| C[C@@H]1O[C@@H](O[C@H]2[C@H](O[C@H]3CC[C@@]4(C)[C@@H](CC[C@]5(C)[C@@H]4CC=C4[C@@H]6CC(C)(C)CC[C@]6(C(=O)N6CCN(CCC(=O)O)CC6)CC[C@]45C)[C@]3(C)CO)OC[C@H](O)[C@@H]2O)[C@H](O)[C@H](O)[C@H]1O | = | 4.33 |
